Hey, just so you know, these numbers are from patent US4431807A.

- Procedure Text: Acute oral toxicity, rats
- Run Parameters: rat, in vivo, po
Readout: LD50 (mg/kg)
Answer with a number only, understood to be in mg/kg.

q: Provide one value: measured LD50 of COc1cc(NC(C)CCCN)c2ncccc2c1 (stereo not shown) [Primaquine Diphosphate, reference compound]
a: 224

----------
- System: Plasmodium berghei
- Procedure Text: Blood schizonticidal (suppressive) test, Rane mouse test, P. berghei
- Format: in vivo, Plasmodium berghei KBG 173 in ICR/HA Swiss mice
- Run Parameters: 10 mg/kg × 1, s.c.; five mice; Table III
Readout: Cures (60 days survival) (C)
Answer with a number only, understood to be in C.

Below: 3 compounds and their reported Cures (60 days survival).
Compound	Reported Measurement
COc1cc(NC(C)CCCN)c2nccc(C)c2c1Oc1ccc(Cl)c(Cl)c1.O=P(O)(O)O (stereo not drawn) [Compound 7]	5
CCC(CCCN)Nc1cc(OC)c(Oc2cccc(C(F)(F)F)c2)c2c(C)ccnc12.O=C(O)CCC(=O)O (stereo not drawn) [Compound 4]	3
COc1cc(NC(C)CCCN)c2nccc(C)c2c1Oc1ccc(Cl)cc1Cl (stereo not drawn) [Compound 8]	1

q: Provide one value: measured Cures (60 days survival) of COc1cc(NC(C)CCCN)c2nccc(C)c2c1Oc1cccc(C(F)(F)F)c1.O=C(O)CCC(=O)O (stereo not drawn) [Compound 1]
a: 3

q: Provide one value: measured Cures (60 days survival) of COc1cc(NCCCCC(C)N)c2nccc(C)c2c1Oc1cccc(C(F)(F)F)c1 (stereo not drawn) [Compound 3, Hemisuccinate Hydrate]
a: 3

q: Provide one value: measured Cures (60 days survival) of COc1cc(NC(C)CCCN)c2nccc(C)c2c1Oc1ccc(F)cc1.O=P(O)(O)O (stereo not drawn) [Compound 9]
a: 3
